The origin of these recorded values is patent EP4567035A1.

IC50 by entry:
Tested on: VEGF
TEST_NAME: Evaluation of VEGF protein secretion level (Human VEGF ELISA) in ARPE-19 cell medium under hypoxic conditions
Type: cell-based
STUDY_CONDITIONS: ARPE-19 cells; pretreated 2 hours, 24 hours hypoxic conditions; secreted VEGF in medium supernatant by ELISA; concentration range reducing VEGF by 50% vs untreated control; read-out: IC50 VEGF

Field: example entries. Status: answers known.
O=C(NCc1cc(F)cc(-c2cnn(-c3cccc(F)c3)c2)c1)c1ncnc2nc(C3CCC(F)(F)C3)[nH]c12 (centres unmarked): 0.1 to 1 µM
COc1ccc(-n2cc(-c3cc(F)cc(CNC(=O)c4ncnc5nc(C6CCCC6)[nH]c45)c3)cn2)cc1: 0.1 to 1 µM
O=C(NCc1cc(F)cc(-c2cn[nH]c2)c1)c1ncnc2nc(C3CCCC3)[nH]c12: < 0.1 µM
CCOC(=O)c1ccc(Nc2cc(F)cc(CNC(=O)c3ncnc4nc(C5CCCC5)[nH]c34)c2)cc1: > 10 µM
Cn1cc(-n2cc(-c3cc(F)cc(CNC(=O)c4ncnc5nc(C6CCCC6)[nH]c45)c3)cn2)cn1: < 0.1 µM
O=C(NCc1cc(F)cc(-c2ccn(-c3ccc(F)cc3)c2)c1)c1ncnc2nc(C3CCCC3)[nH]c12: 0.1 to 1 µM
O=C(NCc1cc(F)cc(-c2cnn(-c3ccc(F)c(Cl)c3)c2)c1)c1ncnc2nc(C3CCCC3)[nH]c12: 0.1 to 1 µM
O=C(NCc1cc(F)cc(Nc2ccon2)c1)c1ncnc2nc(C3CCCC3)[nH]c12: > 10 µM
O=C(NCc1cc(F)cc(Nc2cc[nH]n2)c1)c1ncnc2nc(C3CCCC3)[nH]c12: > 10 µM
COC(=O)C1CC(c2nc3ncnc(C(=O)NCc4cc(F)cc(-c5cnn(-c6ccc(F)cc6)c5)c4)c3[nH]2)C1 (single isomer, unassigned) [103(A)]: > 10 µM

Query: IC50; subject: O=C(NCc1cc(Cl)cc(-c2cnn(-c3ccc(F)cc3)c2)c1)c1ncnc2nc(C3CCCC3)[nH]c12
0.1 to 1 µM

Query: IC50; subject: CS(=O)(=O)c1cccc(-n2cc(-c3cc(F)cc(CNC(=O)c4ncnc5nc(C6CCCC6)[nH]c45)c3)cn2)c1
< 0.1 µM

Query: IC50; subject: O=C(NCc1ccc(-c2cnn(-c3ccc(F)cc3)c2)cc1)c1ncnc2nc(C3CCCC3)[nH]c12
> 10 µM
